Provenance of the data: PubChem BioAssay (NCI)

- method_description: NCI Yeast Anticancer Drug Screen. Data for the sgs1 mgt1 strain (AID 161);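 note: 0% = growth of cultures given vehicle only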
- settings: S. cerevisiae sgs1 mgt1 strain, at 5.0 µM (retest, dose inferred, filed as 0.5), hits give high values
Compounds without any hit were thinned out: in the full panel of roughly 79,000, 15% have a hit.
metric: growth inhibition (%)

> print(dat)
                                    molecule  unit.abbreviation  reported.result
 1  CC(=O)n1nc2c(c1CC(C)C)C(=O)C(Nc1ccccc1)=CC2=O                  %                1
 2        O=NN(CCCl)C(=O)Oc1cc(Cl)c(Cl)cc1Cl                  %               84
 3  COC1(CO)C(=O)N(C)CC(=O)N1C (stereo not given)                  %                5
 4                   ON=C1c2ccccc2-c2ccccc21                  %                2
 5        O=C1C=CC(=O)N1C1c2ccccc2-c2ccccc21                  %               99
 6  Cn1cc(NC(=O)c2cc(NC(=O)CCCCCCCCCCC(=O)Nc3cc(C(=O)Nc4cc(C(=O)NCCC(=N)N)n(C)c4)n(C)c3)cn2C)cc1C(=O)NCCC(=N)N                  %               95
 7           CC(=O)c1cc(-c2ccccc2)nc2ccccc12                  %               12
 8            C1=NCCN=Cc2ccccc2NCCNc2ccccc21                  %                4
 9  C=CCOc1ccc2c(c1)CC=C1[C@@H]2CC[C@]2(C)C(=N\O)/C(=N/O)C[C@@H]12                  %               -9
10  CCC[CH2][Sn]([CH2]CCC)([O]C(=O)c1c(F)cccc1F)[O]C(=O)c1c(F)cccc1F                  %               80
